- System: PXR homodimer (NR concentration 270 nM)
- TEST SUMMARY: PBM binding z-score (relative to random genomic background probes); higher = stronger binding; sequences stand for … in GC…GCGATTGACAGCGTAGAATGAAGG
READOUT LABEL: PBM binding z-score
Answers are plain numbers.

Past entries and their recorded results:
[
  {
    "SEQUENCE INPUT": "GCGACTGGGGCAAAGCAGGCTACCATAAGGTTGG",
    "TESTED SYSTEM": "PXR homodimer (NR concentration 270 nM)",
    "PBM binding z-score": -0.689
  },
  {
    "SEQUENCE INPUT": "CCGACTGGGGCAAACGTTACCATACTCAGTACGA",
    "TESTED SYSTEM": "PXR homodimer (NR concentration 270 nM)",
    "PBM binding z-score": -0.33
  },
  {
    "SEQUENCE INPUT": "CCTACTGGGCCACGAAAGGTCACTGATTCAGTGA",
    "TESTED SYSTEM": "PXR homodimer (NR concentration 270 nM)",
    "PBM binding z-score": 0.0856
  }
]

Go through the list and state PBM binding z-score for each entry.
1. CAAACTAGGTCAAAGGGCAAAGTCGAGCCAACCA
2. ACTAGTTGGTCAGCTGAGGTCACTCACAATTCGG

0.769
1.53

Go through the list and state PBM binding z-score for each entry.
1. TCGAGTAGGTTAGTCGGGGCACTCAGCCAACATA
2. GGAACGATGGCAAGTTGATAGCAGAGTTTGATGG
3. ACAGACAGGCGAGTGAAGGTAACTCAGCTGGACG
4. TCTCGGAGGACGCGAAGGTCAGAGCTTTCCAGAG
5. CGTCAAAGTTCAAGGTAACGCAACAGAAAGCAGC

1. -0.241
2. -0.221
3. -0.674
4. -0.286
5. 3.14

Go through the list and state PBM binding z-score for each entry.
1. ACAGACAGGTGAGTCAAGGTAACTCAGCTGGACG
2. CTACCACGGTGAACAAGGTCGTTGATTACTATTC

1: -0.645; 2: 1.01

Go through the list and state PBM binding z-score for each entry.
1. TCGCCTAGGTCATGCGGGCCAGTATAGTGTCGGC
2. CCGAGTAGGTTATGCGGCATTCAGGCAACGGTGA

[-0.348, 0.0083]

* * *

- Tested on: LXRb:RXRa (NR concentration 270 nM, RXRa partner concentration 90 nM)
- TEST SUMMARY: PBM binding z-score (relative to random genomic background probes); higher = stronger binding; sequences stand for … in GC…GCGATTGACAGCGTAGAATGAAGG
READOUT LABEL: PBM binding z-score

Past entries and their recorded results:
[
  {
    "SEQUENCE INPUT": "GATACATGGTCAGCTAGAGGCCAGAGTATGGAAA",
    "OBS VALUE": -0.77
  },
  {
    "SEQUENCE INPUT": "ATCGAAAGGTCGAGGTGAGAATAGAGAAAGGGAA",
    "OBS VALUE": 2.84
  },
  {
    "SEQUENCE INPUT": "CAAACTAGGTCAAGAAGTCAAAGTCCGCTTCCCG",
    "OBS VALUE": 1.94
  },
  {
    "SEQUENCE INPUT": "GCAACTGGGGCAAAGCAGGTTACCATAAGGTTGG",
    "OBS VALUE": 0.511
  }
]

Go through the list and state PBM binding z-score for each entry.
1. CGTCCAAGGTCAGCAGGTCAGCGAAAGCGACGTG
2. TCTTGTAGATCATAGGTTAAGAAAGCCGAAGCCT
3. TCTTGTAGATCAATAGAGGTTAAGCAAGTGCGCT
4. ACTAGCAGTCCAAGTTTGGGTCACTCAAACAAAG
5. CCGACTGGGGCAGAAAGATTACCATACCATCCGG
6. ATCGTAAGGTCGAGGTGAGTATAGAGAAAGGGAA
7. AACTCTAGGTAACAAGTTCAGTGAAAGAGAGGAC
8. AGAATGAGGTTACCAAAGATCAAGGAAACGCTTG

1: 3.19; 2: 0.991; 3: 1.34; 4: 0.795; 5: -0.639; 6: 1.68; 7: 0.379; 8: 4.24

* * *

- Tested on: RARa:RXR (NR concentration 270 nM, RXRa partner concentration 90 nM)
- TEST SUMMARY: PBM binding z-score (relative to random genomic background probes); higher = stronger binding; sequences stand for … in GC…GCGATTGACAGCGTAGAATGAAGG
READOUT LABEL: PBM binding z-score
Give bare numbers.

[
  {
    "SEQUENCE INPUT": "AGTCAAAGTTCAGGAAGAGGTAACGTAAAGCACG",
    "READOUT LABEL": "PBM binding z-score",
    "OBS VALUE": 3.04
  }
]

Go through the list and state PBM binding z-score for each entry.
1. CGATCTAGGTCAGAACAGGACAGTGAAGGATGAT
2. GCTAGCAGGCCATTTAGGTCACTCAATGACGGGC
3. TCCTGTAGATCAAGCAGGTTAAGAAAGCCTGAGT
4. GCTTACGGTTCAAAGGTTATAGCATGAATAGAAT
5. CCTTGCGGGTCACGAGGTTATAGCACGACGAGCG
6. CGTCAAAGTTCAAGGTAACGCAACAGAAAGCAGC

1.13
0.658
0.301
6.22
6.01
3.59

Go through the list and state PBM binding z-score for each entry.
1. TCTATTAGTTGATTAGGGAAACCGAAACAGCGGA
2. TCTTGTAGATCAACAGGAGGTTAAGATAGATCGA

1: 0.778; 2: 1.05

Go through the list and state PBM binding z-score for each entry.
1. CGAACTAGGTCAAAGACAGTGAATCTCCGCACGC
2. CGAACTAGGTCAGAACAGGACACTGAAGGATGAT
3. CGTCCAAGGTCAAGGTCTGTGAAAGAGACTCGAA

1: 1.82; 2: 1.24; 3: 4.54

* * *

- Tested on: RARg:RXRa (NR concentration 270 nM, RXRa partner concentration 90 nM)
- TEST SUMMARY: PBM binding z-score (relative to random genomic background probes); higher = stronger binding; sequences stand for … in GC…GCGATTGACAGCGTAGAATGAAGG
READOUT LABEL: PBM binding z-score
Answers are plain numbers.

Go through the list and state PBM binding z-score for each entry.
1. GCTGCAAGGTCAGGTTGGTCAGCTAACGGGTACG
2. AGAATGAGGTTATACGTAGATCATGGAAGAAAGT
3. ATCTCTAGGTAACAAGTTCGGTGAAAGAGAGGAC
4. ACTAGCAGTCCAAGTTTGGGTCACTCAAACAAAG
5. CTCGAAAGGTCGGTTGAGGTGGGTATACGGATAA
6. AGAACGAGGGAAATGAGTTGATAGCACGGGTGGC

[4.56, 2.06, 0.788, 0.986, 2.28, -0.0436]

* * *

- Test system: LXRa:RXRa (NR concentration 270 nM, RXRa partner concentration 90 nM)
- TEST SUMMARY: PBM binding z-score (relative to random genomic background probes); higher = stronger binding; sequences stand for … in GC…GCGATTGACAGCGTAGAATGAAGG
READOUT LABEL: PBM binding z-score

Past entries and their recorded results:
[
  {
    "SEQUENCE INPUT": "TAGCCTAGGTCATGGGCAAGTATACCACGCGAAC",
    "PBM binding z-score": 3.35
  },
  {
    "SEQUENCE INPUT": "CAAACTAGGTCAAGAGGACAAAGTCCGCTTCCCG",
    "PBM binding z-score": 2.83
  },
  {
    "SEQUENCE INPUT": "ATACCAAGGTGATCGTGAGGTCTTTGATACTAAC",
    "PBM binding z-score": 0.136
  },
  {
    "SEQUENCE INPUT": "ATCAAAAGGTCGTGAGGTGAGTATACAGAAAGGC",
    "PBM binding z-score": 4.46
  },
  {
    "SEQUENCE INPUT": "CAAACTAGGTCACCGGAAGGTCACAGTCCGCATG",
    "PBM binding z-score": 5.52
  }
]

Go through the list and state PBM binding z-score for each entry.
1. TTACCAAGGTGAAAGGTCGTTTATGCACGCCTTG
2. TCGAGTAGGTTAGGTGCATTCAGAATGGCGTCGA

1: 3.3; 2: -0.0402

Go through the list and state PBM binding z-score for each entry.
1. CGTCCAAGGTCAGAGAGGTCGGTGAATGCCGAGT
2. TTACCAAGGTGAGCTGAGGTCGTAGATCCAACTC
3. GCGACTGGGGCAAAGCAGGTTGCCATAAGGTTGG
4. TCTAGCAGGCCAGAGGGTCACTCCAGAGGTACGG
5. CCTATTTGGTCAGGAGGTCACACACCGGATATGA
6. TAGCCTAGGTCATGGGCCAGTATACCACGCGAAC

3.52
0.614
-0.798
0.694
3.62
3.28

Go through the list and state PBM binding z-score for each entry.
1. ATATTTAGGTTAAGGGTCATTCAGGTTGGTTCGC
2. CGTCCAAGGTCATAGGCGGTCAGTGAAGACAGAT
3. AGAATGAGGTTAAGATCAGGGAGACAGAATACAT
4. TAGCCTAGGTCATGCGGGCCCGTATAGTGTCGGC

4.78
6.83
1.66
3.12

Go through the list and state PBM binding z-score for each entry.
1. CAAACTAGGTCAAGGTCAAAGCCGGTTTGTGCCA
2. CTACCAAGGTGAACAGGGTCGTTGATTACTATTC
3. GCTGCTAGGTCAACTAATGGTCAGCTAAAGCTCG
4. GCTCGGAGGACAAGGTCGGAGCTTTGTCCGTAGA

[5.33, 0.788, 2.87, -0.153]

Go through the list and state PBM binding z-score for each entry.
1. CAAACTAGGTCACCAGAAGGTCAAAGTCCGCATG
2. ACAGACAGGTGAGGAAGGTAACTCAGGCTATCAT
3. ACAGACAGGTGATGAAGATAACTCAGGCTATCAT
4. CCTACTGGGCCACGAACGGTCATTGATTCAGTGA
5. ACTATTAGTTTAGACGAGGGCAACCGATAGGTTG
6. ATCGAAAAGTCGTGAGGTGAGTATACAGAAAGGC

1. 6.04
2. -0.0457
3. -0.125
4. 1.38
5. 0.483
6. 0.127

Go through the list and state PBM binding z-score for each entry.
1. ACTAGCAGGGCAAGGGTCACTCAAGATTAGTCCG
2. CCTAGTTGGACAAGGTCACACACGCTATAGGTAC
3. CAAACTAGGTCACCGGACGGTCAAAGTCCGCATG
4. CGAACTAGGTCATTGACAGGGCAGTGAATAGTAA
5. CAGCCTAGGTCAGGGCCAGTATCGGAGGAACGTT
6. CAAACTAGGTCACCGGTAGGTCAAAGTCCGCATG
7. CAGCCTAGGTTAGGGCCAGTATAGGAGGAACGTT
8. CGTCAAAGTTCAAGGTAACTTAACAGAAAGCAGC

1. 2.84
2. 3.53
3. 4.33
4. 3.17
5. 0.907
6. 4.92
7. -0.473
8. 5.46

Go through the list and state PBM binding z-score for each entry.
1. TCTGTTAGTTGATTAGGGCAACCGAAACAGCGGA
2. TGAATGAGGTTAAAGATCAGGGAACGTGGCGTCG
3. TCAGACAGGTAAAGGTAACTCAGGTACGCAGTCG
4. CTCGAAAGGTCGTGATCAGGTGAGTATACCAAAC
5. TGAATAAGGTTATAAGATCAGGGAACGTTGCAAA

0.576
2.42
3.02
3.83
1.38

Go through the list and state PBM binding z-score for each entry.
1. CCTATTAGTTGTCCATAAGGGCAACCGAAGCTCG
2. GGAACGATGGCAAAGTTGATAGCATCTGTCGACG
3. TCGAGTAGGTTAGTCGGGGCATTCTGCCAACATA
4. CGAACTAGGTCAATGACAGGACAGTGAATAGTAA
5. CCGAGTAGGATATGGGGCATTCAGGCAACGGTGA
6. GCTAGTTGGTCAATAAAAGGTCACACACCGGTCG
7. GCTCGGAGGACTAGGTCAGAGCTTTGTCCGTAGA

1: 0.553; 2: -0.632; 3: -0.585; 4: 2.36; 5: -0.279; 6: 5.13; 7: -0.505
